Values from paper PMC2115978

# Tested on: endosomal insulin degrading activity (GE fraction)
# Assay type: biochemical, rat
# RECORDED CONDITIONS: concentrations as in Tables I and II; 30 min
ASSAY READOUT: effect on endosomal 125I-insulin degradation (in words)

Sample records with effect on endosomal 125I-insulin degradation (in words):
O=C(O)c1cc[c]([Hg][Cl])cc1	Significant inhibition
CCN(CC)CCCC(C)Nc1ccnc2cc(Cl)ccc12 (stereo not drawn)	inhibited markedly
O=S(=O)(F)Cc1ccccc1	no significant effect
CCN1C(=O)C=CC1=O [NEM, N-ethylmaleimide]	significant inhi- bition

Entry "O=C(O)CN(CCN(CC(=O)O)CC(=O)O)CC(=O)O" has what effect on endosomal 125I-insulin degradation (in words)?
no significant effect

Let us now turn to "CO[C@@H]1C[C@@H](C[C@H]2CC[C@H](C)[C@H]([C@@H](C)C(=O)O)O2)O[C@]2(O[C@](C)([C@H]3CC[C@@](C)([C@@H]4O[C@@H]([C@H]5O[C@@](O)(CO)[C@H](C)C[C@@H]5C)C[C@@H]4C)O3)C[C@H]2C)[C@@H]1C"
inhibited markedly

Let us now turn to C(=NC1CCCCC1)=NC1CCCCC1 [DCCD, dicyclohexylcarbodiimide]
significant inhi- bition

Let us now turn to [O]=[V]([O-])([O-])[O-] [Vanadate]
little effect

Let us now turn to "c1cnc2c(c1)ccc1cccnc12"
Significant inhibition

Let us now turn to N=C(N)NC(=O)c1nc(Cl)c(N)nc1N [Amiloride]
little effect

Let us now turn to "CC[C@@]1([C@@H]2O[C@@H]([C@H]3O[C@@](O)(CO)[C@H](C)C[C@@H]3C)C[C@@H]2C)CC[C@H]([C@]2(C)CC[C@]3(C[C@H](O)[C@@H](C)[C@@H]([C@@H](C)[C@@H](OC)[C@H](C)C(=O)O)O3)O2)O1"
inhibited markedly

Let us now turn to "CC[C@H]1/C=C/C=C/C[C@@H](C)[C@H](O)[C@@](C)(O)C(=O)[C@@H](C)[C@H](O)[C@@H](C)C(=O)[C@@H](C)[C@H](O)[C@@H](C)/C=C/C(=O)O[C@@H]2[C@H](C)[C@H](CC1)O[C@]1(CC[C@H](C)[C@H](C[C@@H](C)O)O1)[C@H]2C"
little effect

###

# Test system: endosomal insulin degrading activity (GE fraction)
# Type: biochemical, rat
# RECORDED CONDITIONS: Table II; nucleotide 10 mM (in place of ATP); 0-30 min; mean ± SD, n = 3
What 125I-insulin degraded (percentage of control) was measured for each of the following?
Provide only the numeric value, understood in %.

Field: 125I-insulin degraded (percentage of control) (endosomal insulin degrading activity (GE fraction)). Entry: "Nc1ncnc2c1ncn2[C@@H]1O[C@H](COP(=O)(O)OP(=O)(O)OP(=O)(O)O)[C@@H](O)[C@H]1O"
100

Let us now turn to "Nc1ncnc2c1ncn2[C@@H]1O[C@H](COP(=O)(O)OP(=O)(O)O)[C@@H](O)[C@H]1O"
40.0

Let us now turn to "Nc1nc2c(ncn2[C@@H]2O[C@H](COP(=O)(O)OP(=O)(O)OP(=O)(O)O)[C@@H](O)[C@H]2O)c(=O)[nH]1"
52.8

Let us now turn to "Nc1ncnc2c1ncn2[C@@H]1O[C@H](COP(=O)(O)OP(=O)(O)NP(=O)(O)O)[C@@H](O)[C@H]1O"
24.5
